# test.context: 313.15 K; 101.33 kPa; Liquid
measure: mass density (kg/m3)

Value of measured mass density for the entry CCCO : 787.02

Value of measured mass density for the entry CCCCCC(=O)OCC [ethyl hexanoate] : 863.28

Value of measured mass density for the entry CO : 772.01

Value of measured mass density for the entry CCO : 771.98

Value of measured mass density for the entry CCOC(=O)C(C)CC (stereo not given) [ethyl 2-methylbutanoate] : 853.41

====

# test.context: 303.15 K; 101.33 kPa; Liquid; Falling or rolling sphere viscometry
measure: viscosity (mPa·s)

Example results:
Value of measured viscosity for the entry CO [methanol] : 0.512

Value of measured viscosity for the entry CCCCCC(=O)OCC [ethyl hexanoate] : 0.704

Value of measured viscosity for the entry CCO [ethanol] : 0.968

(1) CCOC(=O)C(C)CC (stereo not given) [ethyl 2-methylbutanoate]
(2) CCCO [propan-1-ol]
Identify the entry with the larger viscosity. Options: 1 and 2 Respond with the label that goes with your answer.
2

====

# test.context: 313.15 K; 101.33 kPa; Liquid; Falling or rolling sphere viscometry
measure: viscosity (mPa·s)

Example results:
Value of measured viscosity for the entry CCCO : 1.378

Value of measured viscosity for the entry CCOC(=O)C(C)CC (stereo not given) [ethyl 2-methylbutanoate] : 0.635

Value of measured viscosity for the entry CCCCCC(=O)OCC [ethyl hexanoate] : 0.614

(P) CO
(Q) CCO
Record comparison, field viscosity: mark the lower of P and Q . Respond with the label that goes with your answer.
P
(P: 0.447 mPa·s, Q: 0.81 mPa·s)

====

# test.context: 303.15 K; 101.33 kPa; Liquid
measure: mass density (kg/m3)

Value of measured mass density for the entry CCO : 780.73

Value of measured mass density for the entry CCCO : 795.48

Value of measured mass density for the entry CO : 781.95

Value of measured mass density for the entry CCOC(=O)C(C)CC (stereo not given) [ethyl 2-methylbutanoate] : 861.48

Value of measured mass density for the entry CCCCCC(=O)OCC [ethyl hexanoate] : 869.31

====

# test.context: 293.15 K; 101.33 kPa; Liquid
measure: mass density (kg/m3)

Value of measured mass density for the entry CCOC(=O)C(C)CC (stereo not given) [ethyl 2-methylbutanoate] : 869.73

Value of measured mass density for the entry CO [methanol] : 791.08

Value of measured mass density for the entry CCCO [propan-1-ol] : 803.64

Value of measured mass density for the entry CCO [ethanol] : 788.24

Value of measured mass density for the entry CCCCCC(=O)OCC [ethyl hexanoate] : 879.01

Values were extracted from the NIST ThermoML archive (doi:10.1021/je0500633).
